Data provenance is patent US20160008490A1.

Molecular target: human GP IIb/IIIa receptor (Homo sapiens, UniProt P05106+P08514)
Construct: human GPIIb/IIIa purified from human platelets was immobilized on a 96-well solid plate
Sequence (P08514 32-887 limits assumed): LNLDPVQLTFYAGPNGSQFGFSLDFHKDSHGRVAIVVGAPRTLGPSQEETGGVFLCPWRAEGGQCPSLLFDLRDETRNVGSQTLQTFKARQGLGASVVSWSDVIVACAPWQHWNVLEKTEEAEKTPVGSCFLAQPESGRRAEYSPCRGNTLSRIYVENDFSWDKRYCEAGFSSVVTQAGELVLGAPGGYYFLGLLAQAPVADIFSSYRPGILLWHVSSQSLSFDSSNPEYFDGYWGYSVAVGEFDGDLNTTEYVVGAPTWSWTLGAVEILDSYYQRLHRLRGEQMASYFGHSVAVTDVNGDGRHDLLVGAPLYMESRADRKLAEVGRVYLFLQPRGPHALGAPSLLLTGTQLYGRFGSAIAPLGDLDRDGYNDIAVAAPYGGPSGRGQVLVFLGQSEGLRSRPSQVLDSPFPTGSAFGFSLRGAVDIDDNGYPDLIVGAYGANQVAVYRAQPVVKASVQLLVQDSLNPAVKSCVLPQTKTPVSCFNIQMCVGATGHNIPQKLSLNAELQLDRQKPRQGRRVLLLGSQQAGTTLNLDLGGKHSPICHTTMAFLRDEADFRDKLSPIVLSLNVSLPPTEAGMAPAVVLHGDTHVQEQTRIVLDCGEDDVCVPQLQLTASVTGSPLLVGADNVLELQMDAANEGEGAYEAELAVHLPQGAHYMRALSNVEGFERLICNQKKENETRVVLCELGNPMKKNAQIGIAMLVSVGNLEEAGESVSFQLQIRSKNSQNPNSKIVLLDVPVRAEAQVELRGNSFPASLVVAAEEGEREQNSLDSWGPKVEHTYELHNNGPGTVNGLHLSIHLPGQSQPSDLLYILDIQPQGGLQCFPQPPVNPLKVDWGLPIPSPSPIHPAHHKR
Sequence (P08514 891-1039 partner limits assumed): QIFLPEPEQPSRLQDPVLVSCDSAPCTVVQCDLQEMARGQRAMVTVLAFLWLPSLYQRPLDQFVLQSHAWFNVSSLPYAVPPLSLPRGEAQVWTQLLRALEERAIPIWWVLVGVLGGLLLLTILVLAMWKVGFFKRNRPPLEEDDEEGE
Sequence (P05106 27-788): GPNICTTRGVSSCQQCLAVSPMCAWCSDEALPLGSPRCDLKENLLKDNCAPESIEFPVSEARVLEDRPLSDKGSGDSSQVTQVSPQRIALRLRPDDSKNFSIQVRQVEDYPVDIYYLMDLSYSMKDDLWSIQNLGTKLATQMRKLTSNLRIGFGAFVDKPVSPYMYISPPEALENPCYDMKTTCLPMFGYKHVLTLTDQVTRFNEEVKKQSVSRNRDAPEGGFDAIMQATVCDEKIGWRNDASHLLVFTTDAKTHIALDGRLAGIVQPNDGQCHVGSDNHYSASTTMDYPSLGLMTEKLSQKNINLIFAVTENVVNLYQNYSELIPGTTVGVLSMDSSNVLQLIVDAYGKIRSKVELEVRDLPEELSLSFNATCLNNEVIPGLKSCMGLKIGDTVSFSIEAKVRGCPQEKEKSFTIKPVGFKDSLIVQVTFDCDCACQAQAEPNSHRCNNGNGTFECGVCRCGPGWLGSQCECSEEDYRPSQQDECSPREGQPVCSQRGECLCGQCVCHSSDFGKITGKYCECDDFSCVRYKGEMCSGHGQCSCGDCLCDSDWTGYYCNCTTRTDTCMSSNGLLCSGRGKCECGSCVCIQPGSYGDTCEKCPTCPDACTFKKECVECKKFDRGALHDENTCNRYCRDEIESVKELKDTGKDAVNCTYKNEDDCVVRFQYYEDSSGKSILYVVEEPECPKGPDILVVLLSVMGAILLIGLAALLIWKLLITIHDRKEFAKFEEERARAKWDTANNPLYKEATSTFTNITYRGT
Assay: GPIIb/IIIa affinity assay (displacement of tritiated reference compound from immobilized receptor)
Details: purified human GPIIb/IIIa, 60 nM 3H-labeled reference compound, 1 hour at room temperature
MEASURE_NAME: IC50 (nM)
Give bare numbers, in nM.

Quote IC50 reported for `C[C@@H](C(=O)NCC(=O)OCCC#Cc1cncc([C@H](CC(=O)O)NC(=O)[C@@H]2CCCN(C(=O)CCC3CCNCC3)C2)c1)N1CCN(CC(=O)O)CCN(CC(=O)O)CCN(CC(=O)O)CC1` please.
29

* * *

Biological target: human GP IIb/IIIa receptor (Homo sapiens, UniProt P05106+P08514)
Construct: human GPIIb/IIIa purified from human platelets was immobilized on a 96-well solid plate
Assay: GPIIb/IIIa affinity assay (displacement of tritiated reference compound from immobilized receptor)
Details: purified human GPIIb/IIIa, 60 nM 3H-labeled reference compound, 1 hour at room temperature
MEASURE_NAME: pIC50
Answers are plain numbers, as −log10 of the molar value.

Here is how some molecules turned out for pIC50.
CC(C(=O)NCC(=O)NCC(NC(=O)CNC(=O)C(C)N1CCN(CC(=O)O)CCN(CC(=O)O)CCN(CC(=O)O)CC1)C(=O)NCC(NC(=O)C(CNC(=O)CNC(=O)C(C)N1CCN(CC(=O)O)CCN(CC(=O)O)CCN(CC(=O)O)CC1)NC(=O)CNC(=O)C(C)N1CCN(CC(=O)O)CCN(CC(=O)O)CCN(CC(=O)O)CC1)C(=O)NCCCc1ccc(C#Cc2cncc([C@H](CC(=O)O)NC(=O)[C@@H]3CCCN(C(=O)CCC4CCNCC4)C3)c2)cc1)N1CCN(CC(=O)O)CCN(CC(=O)O)CCN(CC(=O)O)CC1 (stereo partly drawn); 7.59
C[C@@H](C(=O)NCC(=O)NCCCCCCc1ccc(CCc2cncc([C@H](CC(=O)O)NC(=O)[C@@H]3CCCN(C(=O)CCC4CCNCC4)C3)c2)cc1)N1CCN(CC(=O)O)CCN(CC(=O)O)CCN(CC(=O)O)CC1; 7.60

We now examine a further molecule.
Quote pIC50 reported for CC(C(=O)NCC(=O)NC[C@H](NC(=O)CNC(=O)C(C)N1CCN(CC(=O)O)CCN(CC(=O)O)CCN(CC(=O)O)CC1)C(=O)NC[C@H](NC(=O)[C@H](CNC(=O)CNC(=O)C(C)N1CCN(CC(=O)O)CCN(CC(=O)O)CCN(CC(=O)O)CC1)NC(=O)CNC(=O)C(C)N1CCN(CC(=O)O)CCN(CC(=O)O)CCN(CC(=O)O)CC1)C(=O)NCCCCc1cccc(C#Cc2cncc([C@H](CC(=O)O)NC(=O)[C@@H]3CCCN(C(=O)CCC4CCNCC4)C3)c2)c1)N1CCN(CC(=O)O)CCN(CC(=O)O)CCN(CC(=O)O)CC1 (stereo partly drawn) please.
7.68

* * *

Molecular target: human GP IIb/IIIa receptor (Homo sapiens, UniProt P05106+P08514)
Construct: human GPIIb/IIIa purified from human platelets was immobilized on a 96-well solid plate
Experiment: GPIIb/IIIa affinity assay (displacement of tritiated reference compound from immobilized receptor)
Details: purified human GPIIb/IIIa, 60 nM 3H-labeled reference compound, 1 hour at room temperature
Could you please report measured pIC50 for the items listed next?
Answers are plain numbers, as −log10 of the molar value.

C[C@@H](C(=O)NCC(=O)NCCC#Cc1cncc([C@H](CC(=O)O)NC(=O)[C@@H]2CCCN(C(=O)CCC3CCNCC3)C2)c1)N1CCN(CC(=O)O)CCN(CC(=O)O)CCN(CC(=O)O)CC1 [Example 2]; 7.62
CC(C(=O)NCC(=O)NCCCCc1cc(C#Cc2cncc([C@H](CC(=O)O)NC(=O)[C@@H]3CCCN(C(=O)CCC4CCNCC4)C3)c2)cc(CCCCNC(=O)CNC(=O)C(C)N2CCN(CC(=O)O)CCN(CC(=O)O)CCN(CC(=O)O)CC2)c1)N1CCN(CC(=O)O)CCN(CC(=O)O)CCN(CC(=O)O)CC1 (some centres unmarked) [Example 6]; 6.99
CC(C(=O)NCC(=O)NC[C@H](NC(=O)CNC(=O)C(C)N1CCN(CC(=O)O)CCN(CC(=O)O)CCN(CC(=O)O)CC1)C(=O)NCCCc1ccc(C#Cc2cncc([C@H](CC(=O)O)NC(=O)[C@@H]3CCCN(C(=O)CCC4CCNCC4)C3)c2)cc1)N1CCN(CC(=O)O)CCN(CC(=O)O)CCN(CC(=O)O)CC1 (some centres unmarked) [Example 10]; 7.80
CC(C(=O)NCC(=O)NCC(NC(=O)CNC(=O)C(C)N1CCN(CC(=O)O)CCN(CC(=O)O)CCN(CC(=O)O)CC1)C(=O)NCC(NC(=O)C(CNC(=O)CNC(=O)C(C)N1CCN(CC(=O)O)CCN(CC(=O)O)CCN(CC(=O)O)CC1)NC(=O)CNC(=O)C(C)N1CCN(CC(=O)O)CCN(CC(=O)O)CCN(CC(=O)O)CC1)C(=O)NCCCCc1cccc(CCc2cncc([C@H](CC(=O)O)NC(=O)[C@@H]3CCCN(C(=O)CCC4CCNCC4)C3)c2)c1)N1CCN(CC(=O)O)CCN(CC(=O)O)CCN(CC(=O)O)CC1 (some centres unmarked) [Example 9]; 7.49

Lab note: human GP IIb/IIIa receptor (Homo sapiens, UniProt P05106+P08514) assay, enter pIC50 for C[C@@H](C(=O)NCC(=O)NCCCCCCc1ccc(C#Cc2cncc([C@H](CC(=O)O)NC(=O)[C@@H]3CCCN(C(=O)CCC4CCNCC4)C3)c2)cc1)N1CCN(CC(=O)O)CCN(CC(=O)O)CCN(CC(=O)O)CC1 [Example 3] here
7.89
